system: Escherichia coli; experiment: Inhibition of Escherichia coli beta-lactamase TEM-171 using CENTA as substrate at 100 uM by UV spectrophotometric method relative to control
Classification field: 1 = inhibition at or over 30%; -1 = inhibition under 30%.

smiles_str=O=C(O)c1ccc(NC(=S)Nc2ccc(Oc3ccccc3)cc2)cc1 group=-1
smiles_str=O=C(O)c1ccc(NC(=S)Nc2ccc(Oc3ccc(Cl)cc3)cc2)cc1 group=-1
smiles_str=O=C(O)CCC(=O)Nc1ccc(Oc2ccc(Br)cc2)cc1 group=-1
smiles_str=O=C(O)CCCC(=O)Nc1ccc(Oc2ccc(Cl)cc2Cl)cc1 group=1
smiles_str=O=C(O)C(=O)Nc1ccc(Oc2ccc(Cl)cc2Cl)cc1 group=1
smiles_str=O=C(O)CCCC(=O)Nc1ccc(Oc2ccc(Cl)cc2)cc1 group=-1
smiles_str=O=C(O)CCCC(=O)Nc1ccc(Oc2ccccc2)cc1 group=-1
smiles_str=O=C(O)CCC(=O)Nc1ccc(Oc2ccc(Cl)cc2)cc1 group=-1
smiles_str=O=C(O)CCC(=O)Nc1ccc(Oc2ccccc2)cc1 group=-1
smiles_str=O=C(O)CCC(=O)Nc1ccc(Oc2ccc(Cl)cc2Cl)cc1 group=1
smiles_str=O=C(O)c1ccc(NC(=S)Nc2ccc(Oc3ccc(Cl)cc3Cl)cc2)cc1 group=1

###

tested on: Escherichia coli; experiment: Inhibition of Escherichia coli beta-lactamase TEM-171 assessed as initial hydrolysis rate of substrate CENTA at 100 uM by UV spectrophotometric method (reference value: 0.74 +/- 0.11 uM/s)
MEASUREMENT KIND: V0 (µM/s)

smiles_str=O=C(O)C(=O)Nc1ccc(Oc2ccc(Cl)cc2Cl)cc1 assay_result=0.51
smiles_str=O=C(O)CCCC(=O)Nc1ccc(Oc2ccccc2)cc1 assay_result=0.73
smiles_str=O=C(O)CCCC(=O)Nc1ccc(Oc2ccc(Cl)cc2)cc1 assay_result=0.73
smiles_str=O=C(O)CCC(=O)Nc1ccc(Oc2ccccc2)cc1 assay_result=0.73
smiles_str=O=C(O)CCC(=O)Nc1ccc(Oc2ccc(Cl)cc2Cl)cc1 assay_result=0.46
smiles_str=O=C(O)c1ccc(NC(=S)Nc2ccc(Oc3ccc(Cl)cc3Cl)cc2)cc1 assay_result=0.37
smiles_str=O=C(O)CCC(=O)Nc1ccc(Oc2ccc(Br)cc2)cc1 assay_result=0.53
smiles_str=O=C(O)CCC(=O)Nc1ccc(Oc2ccc(Cl)cc2)cc1 assay_result=0.7
smiles_str=O=C(O)CCCC(=O)Nc1ccc(Oc2ccc(Cl)cc2Cl)cc1 assay_result=0.51
smiles_str=O=C(O)c1ccc(NC(=S)Nc2ccc(Oc3ccc(Cl)cc3)cc2)cc1 assay_result=0.53
smiles_str=O=C(O)c1ccc(NC(=S)Nc2ccc(Oc3ccccc3)cc2)cc1 assay_result=0.59
smiles_str=O=C(O)CCCC(=O)Nc1ccc(Oc2ccc(Br)cc2)cc1 assay_result=0.53

These measurements were taken from ChEMBL document CHEMBL4004865.
